# Test system: T-47D breast
# protocol-notes: NCI tumour cell line growth inhibition, 48 h
measure-name: TGI

Example results:
O=C1c2ccccc2C(=O)c2c(NCCN=Cc3ccccc3O)cccc21 : > 47.1 µM
Nc1c(C(=O)Nc2ccccc2Cl)sc2nc3c(cc12)C(=O)CCC3 : > 100 µM
COc1ccc(-c2ccc(NNC(=O)c3ccc(F)cc3)nn2)cc1OC : > 100 µM
C=CC1(CC[C@]2(c3ccc(OC)c(OC)c3)C=[N+]([O-])O[C@H](O[C@@H]3CCCC[C@H]3C(C)(C)c3ccccc3)C2)OCC(C)(C)CO1 : > 46.7 µM
CC(NC(=O)c1c(O)[nH]c(=S)[nH]c1=O)c1ccc([N+](=O)[O-])cc1 (stereo unspecified) : > 100 µM

According to the records, this molecule O=C1/C(=C\c2cccc(Oc3ccccc3)c2)S(=O)(=O)C(c2ccccc2)N1c1cccc(Cl)c1 (stereo unspecified) displays TGI of > 100 µM

* * *

This listing pairs compounds with measured TGI.
# Test system: MOLT-4 leukemia
# protocol-notes: NCI tumour cell line growth inhibition, 48 h

Examples with their reported TGI follow.
c1ccc2c3[nH]c(c2c1)=Nc1ccc(cc1)-c1nc2ccc(cc2o1)N=c1[nH]c(c2ccccc12)=Nc1ccc2nc(oc2c1)-c1ccc(cc1)N=3 : > 100 µM
C=C(C)[C@@H]1CC[C@]2(C)[C@H](CC[C@@H]3[C@@H]([C@@](C)(O)CCC=C(C)C)CC[C@]32C)[C@@]1(C)CCC(=O)O : 52.7 µM
CC(=O)OC(CCC1(C)OC1COc1ccc(CCNC(=O)C=C(C)C)cc1)C(C)(C)OC(C)=O (configuration not stated) : 39.1 µM
COc1ccc(/C=N/N=C(\N)NO)c(OC)c1C : > 100 µM
CCOC(=O)c1ccc(-c2ccc(Cl)cc2)[nH]1 : > 10 µM

Per the records, this compound ( CCOc1cc(NC(C)=O)ccc1C(=O)NNS(=O)(=O)c1ccc(NC(C)=O)cc1 ) has TGI equal to > 100 µM

In plain terms, Nc1c(C(=O)Nc2ccccc2Cl)sc2nc3c(cc12)C(=O)CCC3 has a documented TGI of > 100 µM

Entry C[P+](C)(C)c1ccccc1 — recorded TGI = > 100 µM

The compound listed as CCCO[C@@H]1[C@@H](OC(C)=O)[C@@H](OC(C)=O)C(C)(C)/C=C/[C@H](C)C(=O)[C@@]2(OC(C)=O)C[C@@](C)(OC(C)=O)[C@H](OC(C)=O)[C@@H]2[C@H]2OC(=O)CC[C@@]12OC(=O)c1ccccc1 has a reported TGI of > 25 µM

Notebook: Cc1nc2ccc(S(=O)(=O)Nc3nccs3)cc2c(=O)n1NS(=O)(=O)c1nccs1 , TGI read as > 100 µM

// TGI value for CNC(C)C(O)c1ccc2oc3cc(=O)c4ccccc4c-3nc2c1 (configuration not stated) : 54.8 µM

# compound Cc1ccc(CSC(N)=Nc2ccccc2)cc1C ; its TGI = 75.4 µM

* * *

# System: OVCAR-4 ovarian
# protocol-notes: NCI tumour cell line growth inhibition, 48 h
// reported TGI for each item listed

O=c1[nH]nc(Cc2ccc(Cl)cc2)n1/N=C/c1cccs1 : > 100 µM

response.value for COc1ccc(/C=N/N=C(\N)NO)c(OC)c1C (field: TGI) = > 100 µM

The recorded TGI for Cc1ccc(N2C(=O)N(c3ccc(C)cc3)C3(SC=NN3C)C2=O)cc1 (stereo not given) is > 100 µM

Entry COc1cc2nc(-c3cccs3)nc(Cl)c2cc1OC ; TGI = > 100 µM

Recorded result, C=CCn1c(SCC(=O)Nc2ccc(C(=O)/C=C/c3cc(OC)c(OC)c(OC)c3)cc2)nnc1-c1ccc(OC)cc1 , TGI: 10.5 µM

CC(=O)c1c(N=[N+]=[N-])c2cccc3c2n(c1=O)CCC3 yielded TGI of 52.3 µM

Value of measured TGI for the entry C1COCCSC2=C(SCCO1)SC(=C1SC3=C(SCCOCCOCCS3)S1)S2 : > 100 µM

CC(=O)NC1C(Sc2ncn(C3OC(CO)C(O)C(O)C3NC(C)=O)n2)OC(CO)C(O)C1O (stereo not given) has a reported TGI of > 100 µM

For this compound ( CC(=O)OCC1OC(n2c(C)c(N=Nc3ccc(Cl)cc3)c(C)c(C#N)c2=S)C(OC(C)=O)C(OC(C)=O)C1OC(C)=O (stereo not given) ), measured TGI is > 100 µM

TGI for NCCN.O=C([O-])[O-].O=C([O-])[O-].[Co+3].[K+] is > 100 µM

* * *

# Tested on: SNB-75 CNS
# protocol-notes: NCI tumour cell line growth inhibition, 48 h
Below, each entry is listed with its recorded TGI.

The following molecules have reported results that may help.
CN1CCc2c(sc3[nH]c(=S)[nH]c(=S)c23)C1 : > 100 µM
Nc1c(C(=O)Nc2ccccc2Cl)sc2nc3c(cc12)C(=O)CCC3 : > 84 µM

Input CCOc1cc(NC(C)=O)ccc1C(=O)NNS(=O)(=O)c1ccc(NC(C)=O)cc1 . Output TGI: > 100 µM

* * *

Parameter TGI: see the listing below.
# Test system: A498 renal
# protocol-notes: NCI tumour cell line growth inhibition, 48 h

Here are 3 molecules together with their reported answers.
CCOc1ccc(N=Cc2c3ccccc3nc3ccccc23)cc1 : > 100 µM
CC(=O)[CH-]C(=O)c1ccccc1.CC(=O)[CH-]C(=O)c1ccccc1.O=S(=O)([O-])c1cc([O-])c2c([O-])cc(S(=O)(=O)[O-])cc2c1.[Na+].[Ti+4] : > 100 µM
CC(=O)OC(CCC1(C)OC1COc1ccc(CCNC(=O)C=C(C)C)cc1)C(C)(C)OC(C)=O (centres undefined) : > 100 µM

Field: next molecule
Short answer for COc1ccc2nc(-c3ccccc3)c(=O)[nH]c2c1 : TGI was > 100 µM

* * *

# Test system: SR leukemia
# protocol-notes: NCI tumour cell line growth inhibition, 48 h
Quick reference: TGI of the listed items.
Hi! Could you send only the number? It should be in µM, unit omitted.

CCCCCCc1cc2cc(C(=O)Nc3ccc(F)cc3)c(=N)oc2cc1O : 8.23
O=C1c2c(Br)sc(Br)c2C(=O)C1(O)O : 57.4

Now let's try a different one.
TGI on SR leukemia for Oc1ccc(N=Nc2nccs2)c(O)c1 is 9.8

* * *

Each entry below carries its reported TGI.
# System: SNB-75 CNS
# protocol-notes: NCI tumour cell line growth inhibition, 48 h

Sample answers from the record:
O=c1cc(NNc2cccc(Cl)c2)[nH]c(=O)[nH]1 : > 100 µM
CC1(C)N=C(N)N=C(N)N1c1cccc(OCCOc2cccc([N+](=O)[O-])c2)c1 : > 100 µM

Please examine the following record next.
Noted TGI for C[Si](C)(C)CN1C(=O)c2ccccc2C1(O)c1ccccc1 (stereo not drawn) , tested on SNB-75 CNS: > 100 µM

* * *

# System: PC-3 prostate
# protocol-notes: NCI tumour cell line growth inhibition, 48 h
In this section we review reported TGI values for a set of molecules.

Field: example entries. Status: answers known.
CN1CCc2c(sc3[nH]c(=S)[nH]c(=S)c23)C1 : > 100 µM
Cc1c2ccc3ccccc3c2c[n+]2ccccc12 : > 100 µM
COc1cccc(-c2nc(-c3cnccn3)n(C/C=C/c3ccccc3)n2)c1 : > 10 µM
Cc1cc(C)nc(NC(P(=O)(O)O)P(=O)(O)O)n1 : > 100 µM

Query O=C1OCC2OC(=O)c3cc(O)c(O)c(O)c3-c3c(O)c(O)c(O)c4c3C(=O)OC(C2OC(=O)c2cc(O)c(O)c(O)c2-c2c1cc(O)c(O)c2O)C1OC(=O)C2C4=C(O)C(=O)C23Oc2cc(O)c4c(c2[C@H]13)O[C@H](c1ccc(O)c(O)c1)[C@@H](O)C4 (stereo not given in full) yields TGI of > 100 µM

* * *

# Tested on: CAKI-1 renal
# protocol-notes: NCI tumour cell line growth inhibition, 48 h
measure-name: TGI (µM)
State the answer as a number, implicitly in µM.

Check out these entries, answers already filled in.
CS(=O)(=O)CS(=O)(=O)OCCCl : 799
CCOC(=O)C(Cc1ccc(O)cc1)Nc1nc(=O)c2c(=O)oc(Cl)cc2o1 (configuration not stated) : 16.6
Cc1c2c(C(N)=O)nccc2c(C)c2c1c1ccccc1n2Cc1ccccc1 : 59

Now for another entry.
The recorded TGI for entry NCCCn1c2c(c3ccccc3c1=O)C(=O)c1ccccc1-2 equals 0.364

* * *

# Tested on: UACC-62 melanoma
# protocol-notes: NCI tumour cell line growth inhibition, 48 h
measure-name: TGI

So, Cc1ccc(NC(=O)C(=O)C2C(=O)NC(=O)NC2=O)cc1C ? Its TGI was > 100 µM

For CC(NC(=O)Cc1ccccc1)NC(=O)C(C)C(=O)NCc1ccccc1 (stereo not drawn) the compound record lists TGI as > 100 µM

Kindly note the recorded TGI for Cc1ccc2c(c1)CC1(Cc3cccc(C)c3C1=O)C2=O (stereo not drawn) , which is > 100 µM

Lab note: Cc1ccc2occ/c(=N\Nc3ccccc3)c2c1 gave TGI of > 100 µM

# TGI of C[P+](C)(C)c1ccccc1 = > 100 µM
